Each entry below carries its recorded inhibition at 30 µM.
Biological target: BRN2 (Homo sapiens)
Sequence (P20265 whole entry): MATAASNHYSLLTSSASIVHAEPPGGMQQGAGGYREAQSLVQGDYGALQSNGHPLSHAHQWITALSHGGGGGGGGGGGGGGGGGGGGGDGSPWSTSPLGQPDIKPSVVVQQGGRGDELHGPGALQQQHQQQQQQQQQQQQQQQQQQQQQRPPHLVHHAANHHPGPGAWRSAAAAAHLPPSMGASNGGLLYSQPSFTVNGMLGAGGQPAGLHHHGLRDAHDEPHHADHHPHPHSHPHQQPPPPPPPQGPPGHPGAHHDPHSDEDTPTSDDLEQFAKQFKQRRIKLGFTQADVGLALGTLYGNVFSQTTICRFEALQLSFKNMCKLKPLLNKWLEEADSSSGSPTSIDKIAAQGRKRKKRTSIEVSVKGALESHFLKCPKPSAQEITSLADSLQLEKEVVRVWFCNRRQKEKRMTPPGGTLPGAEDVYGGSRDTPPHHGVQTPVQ
Experiment: cell-based
Settings: read-out: % BRN2 Inhibition (30 μM), 30 μM compound, 24 hours, 42D^ENZR cells stably expressing BRN2-luciferase reporter; negative = activation
measured_property: inhibition at 30 µM (%)

chem_smiles=NC(=O)c1ccc2cc(-c3csc(-c4ccco4)n3)oc2c1 measured_property="inhibition at 30 µM" readout_value=-10
chem_smiles=c1coc(-c2nc(-c3cc4ncccc4o3)cs2)c1 measured_property="inhibition at 30 µM" readout_value=91.9
chem_smiles=FC(F)(F)c1ccc2cc(-c3csc(-c4cocn4)n3)oc2c1 measured_property="inhibition at 30 µM" readout_value=90

###

Molecular target: BRN2 (Homo sapiens)
Experiment: cell-based
Conditions: read-out: % BRN2 Inhibition (30 μM), 30 μM compound, 24 hours, 42D^ENZR cells stably expressing BRN2-luciferase reporter; negative = activation
Recorded inhibition at 30 µM values for a group of molecules are listed next.
measured_property: inhibition at 30 µM (%)

molecule="FC(F)(F)c1ccc2cc(-c3coc(-c4ccco4)n3)oc2c1 [VPC-18-120]" measured_property="inhibition at 30 µM" units=% readout_value=88.8
molecule="Cn1c(-c2ccc(-c3ccccc3)o2)nc2ccc(C(F)(F)F)cc21 [VPC-18-61]" measured_property="inhibition at 30 µM" units=% readout_value=-92
molecule="O=[N+]([O-])c1ccc(-c2nc(-c3cc4ccccc4o3)cs2)o1 [VPC-18-49]" measured_property="inhibition at 30 µM" units=% readout_value=-21
molecule="c1ccc(-n2cc(-c3nc4ccccc4o3)cn2)cc1 [VPC-18-18]" measured_property="inhibition at 30 µM" units=% readout_value=87

###

Listed below: half-life at 1 µM values for each entry.
Assay: Liver microsome metabolic stability, MLM
Type: in vitro ADME
Conditions: mouse, liver microsomes, pH 7.4; MLM (single value or second of two), 1 μM compound, 0.25 mg/mL protein; read-out: T1/2 in (mins HLM/MLM)
measured_property: half-life at 1 µM (min)

compound=FC(F)(F)c1ccc2cc(-c3csc(C4CCNCC4)n3)oc2c1 inequality_symbol=> readout_value=60
compound=Clc1ccc2cc(-c3csc(-c4ncco4)n3)oc2c1 inequality_symbol== readout_value=36
compound=CN1CCN(c2ccc(-c3nc4ccc(C(F)(F)F)cc4n3C)o2)CC1 inequality_symbol== readout_value=7
compound="Clc1ccc2cc(-c3csc(C4CCCO4)n3)oc2c1 (stereo not shown)" inequality_symbol== readout_value=25
compound=Clc1ccc2cc(-c3csc(-c4ccco4)n3)oc2c1 inequality_symbol== readout_value=42
compound=Clc1ccc2cc(-c3csc(-c4ccc[nH]4)n3)oc2c1 inequality_symbol== readout_value=27
compound=Cc1c(-c2csc(-c3ccco3)n2)oc2ccccc12 inequality_symbol== readout_value=2
compound=FC(F)(F)c1ccc2cc(-c3csc(N4CCOCC4)n3)oc2c1 inequality_symbol== readout_value=30
compound=Clc1ccc2nc(-c3csc(-c4ccco4)n3)oc2c1 inequality_symbol== readout_value=8
compound=Fc1sc(-c2ccco2)nc1-c1cc2ccc(C(F)(F)F)cc2o1 inequality_symbol== readout_value=10
compound=COc1ccccc1-c1ccc(-c2nc3ccccc3n2C)o1 inequality_symbol== readout_value=5
compound="Clc1ccc2cc(-c3csc(N4CC5CC4CO5)n3)oc2c1 (stereo not shown)" inequality_symbol== readout_value=11
compound=c1coc(-c2ncc(-c3cc4ccccc4o3)s2)c1 inequality_symbol== readout_value=8
compound=Clc1ccc2cc(-c3csc(-c4cc[nH]c4)n3)oc2c1 inequality_symbol== readout_value=22
compound=FC(F)(F)c1ccc2cc(-c3nccc(-c4ccc[nH]4)n3)oc2c1 inequality_symbol== readout_value=10
compound=Clc1ccc2cc(-c3csc(-c4ccn[nH]4)n3)oc2c1 inequality_symbol== readout_value=45
compound=O=[N+]([O-])c1ccc2nc(-c3ccc(-c4ccccc4F)o3)[nH]c2c1 inequality_symbol== readout_value=12
compound=Clc1ccc2cc(-c3csc(-c4nccs4)n3)oc2c1 inequality_symbol== readout_value=16
compound=FC(F)(F)c1ccc2cc(-c3coc(-c4ccco4)n3)oc2c1 inequality_symbol== readout_value=13
